# ASSAY NAME: CCTE_Padilla_ZF_Score.Any: CCTE's 144 Hour Post-fertilization zebrafish Assay Score for Any Mortality or Malformation, Padilla Lab (AID 2284416)
Calls of active or inactive are those of the source. The calls were made as follows: active = hit-call score of the fitted dose curve at least 0.9, where 1 is the maximum; inactive = score below 0.9.
MEASUREMENT LABEL: AC50

# example entries with known answers
COMPOUND | AC50
O=S(=O)(O)CCC(F)(F)C(F)(F)C(F)(F)C(F)(F)C(F)(F)C(F)(F)F | inactive
FC(F)C(F)(F)COCC1CO1 (centres undefined) | 30.7 µM (active)
C[Si](C)(C)C(F)(F)C(F)(F)C(F)(F)F | inactive
NCC(F)(F)C(F)(F)C(F)(F)C(F)(F)F | inactive
OCCC(F)(F)C(F)(F)C(F)(F)C(F)(F)F | inactive
OC(O)(C(F)C(O)(O)C(F)(F)F)C(F)(F)F | 16.9 µM (active)

Look up AC50 for this compound: `FC(F)(F)COC(OCC(F)(F)F)OCC(F)(F)F`
inactive

Now consider `FC(F)(F)C(F)(F)C(F)(F)C(F)(F)C(F)(F)C(F)(F)I` and answer again.
inactive

Now consider `O=C(Cl)C(F)(F)C(F)(F)C(F)(F)C(=O)Cl` and answer again.
inactive

----------
# Read-out: Interleukin 6 (IL6), IL6 (gene 3569)
# ASSAY NAME: BSK_BT_xIL6: BioMAP Diversity Plus: BT Assay for Interleukin 6 (IL6) Biomarker Activity (AID 2284228)
# CONDITION SET: primary human B cells with PBMC
The source made the active and inactive calls. The calls were made as follows: active = hit-call score of the fitted dose curve at least 0.9, where 1 is the maximum; inactive = score below 0.9.
Write down the outcome that applies. Available outcomes: T = active, F = inactive

Solved entries (count: 3):
COMPOUND | LABEL VALUE
FC(F)C(F)(F)COCC1CO1 (centres undefined) | F
Cc1cccc(O)c1C | F
OCc1c[nH]c2ccccc12 | T

Here is another compound to look at.
Write down the call the test reported for this compound. Item: `O=S(=O)(O)CCC(F)(F)C(F)(F)C(F)(F)C(F)(F)C(F)(F)C(F)(F)F`
F

----------
# Read-out: Low-density lipoprotein receptor (LDLR), LDLR (gene 3949)
# ASSAY NAME: BSK_CASM3C_LDLR: BioMAP Diversity Plus: CASM3C Assay for Low-density lipoprotein receptor (LDLR) Biomarker Activity (AID 2283045);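 also: LDLR protein level on the cell surface quantified by ELISA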
# CONDITION SET: primary human coronary artery smooth muscle cells; actives raise or lower the signal
The source made the active and inactive calls. Rule for the calls: active = hit-call score of the fitted dose curve at least 0.9, where 1 is the maximum; inactive = score below 0.9.
Write down the outcome that applies. Available outcomes: active, inactive

MOLECULAR STRING | LABEL VALUE
COS(C)(=O)=O | inactive
S=P(N1CC1)(N1CC1)N1CC1 | inactive
Cc1nccn1-c1ccc(Sc2cccc(C3(C(N)=O)CCOCC3)c2)cc1 | inactive
CC1(C)C(=O)N(Cl)C(=O)N1Cl | inactive
CCCc1ccccc1 | inactive
OC[C@H]1O[C@@H]2O[C@H]3[C@H](O)[C@@H](O)[C@@H](O[C@H]4[C@H](O)[C@@H](O)[C@@H](O[C@H]5[C@H](O)[C@@H](O)[C@@H](O[C@H]6[C@H](O)[C@@H](O)[C@@H](O[C@H]7[C@H](O)[C@@H](O)[C@@H](O[C@H]1[C@H](O)[C@H]2O)O[C@@H]7CO)O[C@@H]6CO)O[C@@H]5CO)O[C@@H]4CO)O[C@@H]3CO | inactive
O=S1(=O)CCCO1 | inactive
OCC(CO)(CO)CO | inactive
CC(C)c1nnc2ccc(-c3ocnc3-c3cc(F)ccc3F)cn12 | active
OCCOCCOCCO | inactive

Here is another molecule to look at.
Write down the call the test reported for this molecule. Item: `CCCC(CCC)C(=O)O`
inactive
